# Tested on: MEK6;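 further: KINOMEscan kinase panel screen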
# Construct: gene MAP2K6
# Assay Setup: concentration: 1 μM, replicates: in singlicate; n = 1
Measurement Type: %Inh (%)
Record the value in %, omitting the unit from your answer.

Bench note: what %Inh did "Cc1cccc2c(-c3ccncn3)c(-c3ccc(F)cc3)nn12" show? 0

Same again, this time with "COc1ccc(CSc2nnc(-c3ccc4nccn4c3)o2)cc1C(F)(F)F" 0

// same read-out, input: "Cc1ccc(NC(=O)c2ccc(Cl)cc2)cc1-c1ccc(C(=O)Nc2ccncc2)cc1" 0

Try this compound next: COC(=O)C(NC(=O)NC1CCN(c2ccnc(Nc3ccc(F)cc3)n2)C1)c1ccccc1 (stereo not drawn) 0

Next compound up: CC(=O)c1cccc(NC(=O)NC2CCN(c3ccnc(Nc4ccc(F)cc4)n3)C2)c1 (stereo not drawn) 9

What would you report for "Cc1cnc(N)c(/C=C/c2cncc(C(=O)NCCc3ccc(Cl)cc3Cl)c2)c1.Cl" ? 0

Okay, and "Fc1ccc(-c2nn3cccc(F)c3c2-c2ccncc2)cc1" ? 0

Thanks! And "CC[C@@H]1CO[C@H](C(=O)Nc2ccccc2)CN1c1cc(-c2ccc3c(N)n[nH]c3c2)nc(NC)n1" ? 0

Same lookup for COC(=O)C(Cc1ccccc1)NC(=O)NC1CCN(c2ccnc(Nc3ccc(F)cc3)n2)C1 (stereo not drawn) , please. 4

Consider next the compound "CC(C)c1ccc(O)cc1Nc1ccnc2ccc(C(F)(F)F)cc12" in the same way. 0

// next record "CSc1ccc(-c2nc3n(c2-c2ccncc2)CCC3)cc1" 0

Now the compound COc1ccc(Nc2nccc(N3CCC(NC(=O)C(C)c4ccc(Cl)cc4)CC3)n2)cc1 (stereo not drawn) 0

Also check "O=c1cc(N2CCOCC2)nc2n(Cc3cccc(Cl)c3Cl)c3ccccc3n12" 0

Try this compound next: "O=C1NC(=O)C(c2ccc(Cl)cc2)=C1Nc1cccc(Cl)c1" 3

Request: "Cc1nccc(-c2c(-c3ccc(F)cc3)ncn2CCCN2CCOCC2)n1.Cl" 0

Try this compound too: "COc1ccc(CSc2nnc(-c3ccc4c(c3)CCO4)o2)cc1" 0
